Values from patent US20230125788

# target.system: T1, TDP-43 deltaN (UniProt Q13148 Q13148:102-414)
# T1 chain: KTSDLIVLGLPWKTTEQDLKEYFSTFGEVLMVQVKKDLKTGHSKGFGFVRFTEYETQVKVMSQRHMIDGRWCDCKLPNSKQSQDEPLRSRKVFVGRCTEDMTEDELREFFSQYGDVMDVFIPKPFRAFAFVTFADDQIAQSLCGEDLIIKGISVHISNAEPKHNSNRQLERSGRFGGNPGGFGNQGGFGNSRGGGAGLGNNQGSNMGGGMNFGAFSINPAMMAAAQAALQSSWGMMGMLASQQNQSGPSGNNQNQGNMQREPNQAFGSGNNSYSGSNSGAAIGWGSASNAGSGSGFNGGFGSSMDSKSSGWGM
# protocol.notes: FP; apparent; 300 mM NaCl
# assay.context: tags: N-terminal His6-SUMO; label: FITC
reported.endpoint: pKd
Please report pKd as the negative decimal logarithm of the molar concentration, giving only the number.

Would you kindly share the measured pKd for AGUGUGUGUGUGU (ssRNA, 2'-OMe and PS unless otherwise noted (general statement)) [A(GU)6-FITC] ?
9.15
